Assay type: in vivo, human
reported conditions: human, urine and plasma, oral, 400 mg
assay endpoint: CL renal
Give the value; after it, write the unit.

Q: I would be grateful if you could share the reported CL renal for O=C1Nc2ccc(Cl)cc2[C@@](C#CC2CC2)(C(F)(F)F)O1 .
Result: 0.06 mL/min

###

Format: in vivo, human
reported conditions: human, serum, oral, 10 mg, Cmax, steady state, 10 mg ezetimibe alone, mean ± SD
assay endpoint: Cmax (ng/mL)
// note: answer is a bare numeric in ng/mL

Q: I would be grateful if you could share the reported Cmax for O=C1[C@H](CC[C@H](O)c2ccc(F)cc2)[C@@H](c2ccc(O)cc2)N1c1ccc(F)cc1 .
Result: 4.82

###

Assay type: in vivo, human
reported conditions: human, serum, oral, 10 mg, AUC0–24 h, steady state, 10 mg ezetimibe alone, 12 healthy subjects, mean ± SD
assay endpoint: AUC(0-t) (ng·h/mL)
// note: answer is a bare numeric in ng·h/mL

Q: I would be grateful if you could share the reported AUC(0-t) for O=C1[C@H](CC[C@H](O)c2ccc(F)cc2)[C@@H](c2ccc(O)cc2)N1c1ccc(F)cc1 .
Result: 51.9

###

Assay type: in vivo, human
reported conditions: human, serum, oral, 10 mg, AUC0–6 h, steady state, 10 mg ezetimibe alone, mean ± SD
assay endpoint: AUC(0-t) (ng·h/mL)
// note: answer is a bare numeric in ng·h/mL

Q: I would be grateful if you could share the reported AUC(0-t) for O=C1[C@H](CC[C@H](O)c2ccc(F)cc2)[C@@H](c2ccc(O)cc2)N1c1ccc(F)cc1 .
Result: 13.6

###

tested target: ABCC2 (Homo sapiens, UniProt Q92887)
Sequence (Q92887 whole entry): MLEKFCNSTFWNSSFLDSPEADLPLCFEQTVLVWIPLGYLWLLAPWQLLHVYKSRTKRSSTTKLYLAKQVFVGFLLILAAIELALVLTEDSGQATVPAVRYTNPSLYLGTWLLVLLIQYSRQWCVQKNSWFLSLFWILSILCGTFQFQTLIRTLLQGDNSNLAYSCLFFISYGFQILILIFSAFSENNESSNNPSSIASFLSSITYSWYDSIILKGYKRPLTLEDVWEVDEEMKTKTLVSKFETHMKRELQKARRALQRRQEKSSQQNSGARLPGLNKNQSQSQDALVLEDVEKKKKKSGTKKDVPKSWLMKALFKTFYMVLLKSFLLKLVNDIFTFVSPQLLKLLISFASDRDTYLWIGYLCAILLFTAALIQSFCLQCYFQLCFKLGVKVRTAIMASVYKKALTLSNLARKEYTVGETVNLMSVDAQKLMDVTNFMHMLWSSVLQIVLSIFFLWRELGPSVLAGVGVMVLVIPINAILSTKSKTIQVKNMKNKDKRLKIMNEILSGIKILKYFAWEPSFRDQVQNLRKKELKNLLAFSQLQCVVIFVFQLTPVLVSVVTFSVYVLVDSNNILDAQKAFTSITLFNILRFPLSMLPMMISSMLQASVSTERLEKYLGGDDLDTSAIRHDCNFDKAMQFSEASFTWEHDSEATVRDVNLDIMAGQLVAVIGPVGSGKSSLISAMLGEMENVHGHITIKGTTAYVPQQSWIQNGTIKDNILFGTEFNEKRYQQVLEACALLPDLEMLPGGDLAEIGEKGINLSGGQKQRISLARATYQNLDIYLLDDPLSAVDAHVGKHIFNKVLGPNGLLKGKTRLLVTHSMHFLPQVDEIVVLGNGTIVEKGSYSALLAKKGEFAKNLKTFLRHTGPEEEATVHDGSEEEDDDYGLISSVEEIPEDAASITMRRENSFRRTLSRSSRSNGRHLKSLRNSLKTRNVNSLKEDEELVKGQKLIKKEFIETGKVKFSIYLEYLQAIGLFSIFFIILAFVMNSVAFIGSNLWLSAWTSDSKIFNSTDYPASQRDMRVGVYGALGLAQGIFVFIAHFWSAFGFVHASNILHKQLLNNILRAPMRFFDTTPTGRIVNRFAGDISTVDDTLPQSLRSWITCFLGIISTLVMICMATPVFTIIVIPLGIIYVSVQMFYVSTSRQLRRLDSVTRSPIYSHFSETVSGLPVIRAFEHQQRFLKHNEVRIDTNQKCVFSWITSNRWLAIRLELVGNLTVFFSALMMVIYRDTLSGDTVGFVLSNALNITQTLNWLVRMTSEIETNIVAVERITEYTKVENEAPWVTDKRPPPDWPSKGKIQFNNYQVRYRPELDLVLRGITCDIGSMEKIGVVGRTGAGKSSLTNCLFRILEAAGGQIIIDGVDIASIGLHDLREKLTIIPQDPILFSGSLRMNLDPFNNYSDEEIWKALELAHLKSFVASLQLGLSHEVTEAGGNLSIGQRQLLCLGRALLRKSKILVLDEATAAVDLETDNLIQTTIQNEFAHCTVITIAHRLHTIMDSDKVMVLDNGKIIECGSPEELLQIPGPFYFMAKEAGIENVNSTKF
method: Uptake of estradiol-17β-glucuronide into ABCC2-containing inside-out vesicles
assay endpoint: pIC50
In textbook form, pIC50 equals minus log to base ten of the concentration in mol/L.

Q: I would be grateful if you could share the reported pIC50 for O=C1Nc2ccc(Cl)cc2[C@@](C#CC2CC2)(C(F)(F)F)O1 .
Result: 4.22
